tested on: Saccharomyces cerevisiae; experiment: protein stability index of tFT-peptide fusion (C-terminal peptide) (PSI (0-1 scale)); higher = more stable (slower turnover); conditions: genetic background: wild type; temperature: 30 C;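 further: PSI is a weighted mean of sequencing reads over stability bins, variants kept only with over 10 reads, mCherry proximal and sfGFP distal, peptide attached via GGGS linker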
property-label: protein stability index
One number for each entry.

1) PPPVLPSPRSDP    0.667

Parameter requested: protein stability index. Apply to each item below.
1. TIPPSTRAITPV
2. RGPTGEDLCSAM
3. KKKKKKKTKKRK
4. KKFRKGKKNKRK

a:
1: 0.652; 2: 0.696; 3: 0.717; 4: 0.657

Parameter requested: protein stability index. Apply to each item below.
1. YDELEKADKQEE
2. MSIDQPLLGTGV
3. GRRRCGGGVEVC
4. RCVRLSISILRP

a:
1: 0.672; 2: 0.638; 3: 0.668; 4: 0.586

Parameter requested: protein stability index. Apply to each item below.
1. LYDQTSQDRRVF
2. ALSLPFERVRDT

a:
1: 0.697; 2: 0.692

Parameter requested: protein stability index. Apply to each item below.
1. RSRKICYREEKR
2. SFGVDPDNCVGF
3. SPPPPPPPPPPL

a:
0.644
0.607
0.757
